Test system: MOLT-4 cells
PROCEDURE TEXT: MOLT-4 cell viability using MTT assay
Format: cell-based
RECORDED CONDITIONS: Homo sapiens, MOLT-4, 48 h, 48 h exposure
Quick rule for you: IC50 under 1 nM gets fulfilled, anything else gets not fulfilled.

Would you please look over these solved cases?
Cc1c(Nc2nc3ccccc3s2)nnc2c1CCN2c1nc(C(=O)O)c(CCCOc2ccc(C#CCN(C)C)cc2F)s1 ... not fulfilled
Cc1c(Nc2nc3ccccc3s2)nnc2c1ccn2-c1ccc(-c2cnn(CC34CC5CC(CC(C5)C3)C4)c2C)c(C(=O)O)n1 ... fulfilled
Cc1c(Nc2nc3ccccc3s2)nnc2c1CCCN2c1ccc(-c2cnn(CC34CC5(C)CC(C)(C3)CC(OCCN(CCCO)CCCO)(C5)C4)c2C)c(C(=O)O)n1 ... not fulfilled
Cc1c(Nc2nc3cccc(F)c3s2)nnc2c1CCCN2c1nc(C(=O)O)c(CCCOc2ccc(C#CCN(C)C)cc2F)s1 ... not fulfilled

For the next question, use this compound.
Req: I'd appreciate it if you could check whether `Cc1c(Nc2nc3cccc(F)c3s2)nnc2c1CCCN2c1ccc(-c2cnn(CC34CC5(C)CC(C)(C3)CC(OCCN3CCCC3)(C5)C4)c2C)c(C(=O)O)n1` has IC50 smaller than 1 nM.
Resp: fulfilled
